- target under test: desmolase (CSCC)
- experiment: Cholesterol side chain cleavage (CSCC, desmolase) inhibition, mitochondrial fraction from human placenta or bovine adrenals
- measurement conditions: substrate 5 μM, 30 min, 37° C., read-out: IC-50 CSCC (desmolase)
endpoint label: IC50 (µM)
Field format: number, assumed µM, no unit text.

Solved entries (count: 3):
Cc1cccc(C(CCCc2c[nH]cn2)c2cccc(C)c2)c1 [Compound 13a]
48
c1ccc(C(CCCCCc2c[nH]cn2)c2ccccc2)cc1 [Compound 19a, 4-(6,6-diphenylhexyl)-1H-imidazole]
61
N#Cc1ccc(C(CCc2ccc(F)cc2)Cc2c[nH]cn2)cc1 (stereo not drawn) [Compound 19c]
6.6

Task: Need IC50, item Cc1ccc(C(CCCc2c[nH]cn2)c2ccccc2)cc1C (stereo not drawn) [Compound 15a]
Output: 39

Task: Need IC50, item Cc1cccc(C(CCCc2c[nH]cn2)c2cc(C)cc(C)c2)c1 (stereo not drawn) [Compound 16a]
Output: 95

Task: Need IC50, item Fc1ccc(C(CCCc2c[nH]cn2)c2ccccc2)cc1 (stereo not drawn) [Compound 21a]
Output: 80

Task: Need IC50, item Cc1cccc(C)c1CCCCC(c1ccc(F)cc1)c1c[nH]cn1 (stereo not drawn) [Compound 13c]
Output: 31

Task: Need IC50, item Nc1ccc(C(CCCc2c[nH]cn2)c2ccc(N)cc2)cc1 [Compound 25a]
Output: 210

Task: Need IC50, item Fc1ccccc1C(CCCc1c[nH]cn1)c1ccccc1 (stereo not drawn) [Compound 20a]
Output: 38

---

Each record here notes measured pIC50.
- target under test: desmolase (CSCC)
- experiment: Cholesterol side chain cleavage (CSCC, desmolase) inhibition, mitochondrial fraction from human placenta or bovine adrenals
- measurement conditions: substrate 5 μM, 30 min, 37° C., read-out: IC-50 CSCC (desmolase)
In textbook form, pIC50 equals minus log to base ten of the concentration in mol/L.

COc1ccc(CCCCC(c2ccc(F)cc2)c2c[nH]cn2)cc1 (stereo not drawn) [Compound 12c]
4.65

Task: Recorded pIC50 for CCc1ccc(C(CCCc2c[nH]cn2)c2ccccc2)cc1 (stereo not drawn) [Compound 26a] with desmolase (CSCC), please?
Output: 4.19

Task: Recorded pIC50 for c1ccc(CC(CCCc2c[nH]cn2)c2ccccc2)cc1 (stereo not drawn) with desmolase (CSCC), please?
Output: 4.57
